B1: ZNF649 (parent)
chain: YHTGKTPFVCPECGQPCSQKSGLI

- Variants of: B1
- PROCEDURE_DETAILS: protein stability index of a GFP-peptide fusion (GPS, HEK-293T) (PSI 1-6); higher = more stable;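 note: lentivirally expressed fusions sorted by FACS into six bins by GFP to DsRed ratio, PSI derived from sequencing read proportions per bin multiplied by bin number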
- EXPERIMENTAL_CONDITIONS: c terminus: a fixed tail appended
Each entry below carries its reported protein stability index.
Just the number, please, no unit after it.

For orientation, consider the following solved cases.
Query: Param item = G22F ; retrieve measured protein stability index.
Reply: 2.34

Query: Likewise for E12V ?
Reply: 2.22

Query: Param item: P11L
Reply: 1.71

Query: Follow-up item: G4C
Reply: 2.49

Query: Repeat for the following variant: L23I
Reply: 2.03

Query: Same again, this time with Y1V
Reply: 3.5

Query: Query K20P next
Reply: 2.1

Query: Same again, this time with I24M
Reply: 1.84

Next:
Query: Would you mind telling me what protein stability index value was observed for E12D ?
Reply: 3.08

Query: What do you have for G4D ?
Reply: 2.48

Query: Same lookup for V9T , please.
Reply: 2.43

Query: Let us now turn to G22C
Reply: 2.19

Query: Try P16Y next.
Reply: 1.04

Query: Would you mind doing C10T as well?
Reply: 2.37

Query: Same thing, different variant: H2L
Reply: 2.2

Query: And what about the variant P7A ?
Reply: 1.73

Query: Input T3H
Reply: 2.78

Query: Now try Q19F .
Reply: 2

Query: Again, but for G22S
Reply: 2.63

Query: Field entry: C10S
Reply: 2.85

Query: Ok, now Q19W
Reply: 1.23

Query: Next up: G14I
Reply: 1.79

Query: Now try S18L .
Reply: 1.85

Query: Next record, please: G4Y
Reply: 1.69

The measured values listed here are drawn from the supplement of paper PMC10567573.
